- Tested on: Candida albicans ATCC10231
- TEST PROTOCOL: Systemic fungal infection in mice, intragastric administration
- Format: in vivo, ICR mice
- ASSAY CONDITIONS: Candida albicans, ATCC10231, po, 120 h, read-out: survival rate of mice, day 5, 20 mg/kg intragastric once daily for 5 days; day 5
Each entry below carries its recorded responders at 20 mg/kg.
MEASUREMENT KIND: responders at 20 mg/kg (%)

* CC[C@@H]([C@H](C)O)n1ncn(-c2ccc(N3CCN(c4ccc(OC[C@@H]5CO[C@@](Cn6c[n+](C(C)OC(=O)N(C)c7ncccc7COC(=O)[C@@H](N)CCCCN)cn6)(c6ccc(F)cc6F)C5)cc4)CC3)cc2)c1=O (stereo partly drawn) | 80
* CC[C@@H]([C@H](C)O)n1ncn(-c2ccc(N3CCN(c4ccc(OC[C@@H]5CO[C@@](Cn6c[n+](C(C)OC(=O)N(C)c7ncccc7COC(=O)[C@@H](N)CCCNC(N)=O)cn6)(c6ccc(F)cc6F)C5)cc4)CC3)cc2)c1=O (stereo partly drawn) | 80
* CC[C@@H]([C@H](C)O)n1ncn(-c2ccc(N3CCN(c4ccc(OC[C@@H]5CO[C@@](Cn6c[n+](C(C)OC(=O)N(C)c7ncccc7COC(=O)CN)cn6)(c6ccc(F)cc6F)C5)cc4)CC3)cc2)c1=O (stereo partly drawn) | 80
* CC[C@@H]([C@H](C)O)n1ncn(-c2ccc(N3CCN(c4ccc(OC[C@@H]5CO[C@@](Cn6c[n+](C(C)OC(=O)N(C)c7ncccc7COC(=O)[C@@H](N)CCC(N)=O)cn6)(c6ccc(F)cc6F)C5)cc4)CC3)cc2)c1=O (stereo partly drawn) | 80
* CC[C@@H]([C@H](C)O)n1ncn(-c2ccc(N3CCN(c4ccc(OC[C@@H]5CO[C@@](Cn6c[n+](C(C)OC(=O)N(C)c7ncccc7COC(=O)[C@@H](N)CC(N)=O)cn6)(c6ccc(F)cc6F)C5)cc4)CC3)cc2)c1=O (stereo partly drawn) | 90
* CC[C@@H]([C@H](C)O)n1ncn(-c2ccc(N3CCN(c4ccc(OC[C@@H]5CO[C@@](Cn6c[n+](C(C)OC(=O)N(C)c7ccccc7COC(=O)[C@@H](N)CCCN)cn6)(c6ccc(F)cc6F)C5)cc4)CC3)cc2)c1=O (stereo partly drawn) | 80
* CC[C@@H]([C@H](C)O)n1ncn(-c2ccc(N3CCN(c4ccc(OC[C@@H]5CO[C@@](Cn6c[n+](C(C)OC(=O)N(C)c7ncccc7COC(=O)[C@@H](N)CO)cn6)(c6ccc(F)cc6F)C5)cc4)CC3)cc2)c1=O (stereo partly drawn) | 80
* CC[C@@H]([C@H](C)O)n1ncn(-c2ccc(N3CCN(c4ccc(OC[C@@H]5CO[C@@](Cn6c[n+](C(C)OC(=O)N(C)c7ncccc7COC(=O)[C@@H](N)[C@@H](C)O)cn6)(c6ccc(F)cc6F)C5)cc4)CC3)cc2)c1=O (stereo partly drawn) | 70
* CC[C@@H]([C@H](C)O)n1ncn(-c2ccc(N3CCN(c4ccc(OC[C@@H]5CO[C@@](Cn6c[n+](C(C)OC(=O)N(C)c7ncccc7COC(=O)[C@@H](N)CCCN)cn6)(c6ccc(F)cc6F)C5)cc4)CC3)cc2)c1=O (stereo partly drawn) | 80

###

- TEST PROTOCOL: Determination of solubility in deionized water (HPLC, external standard)
- ASSAY CONDITIONS: 25 °C, water, thermodynamic from solid
MEASUREMENT KIND: solubility at 30 min

* CC[C@@H]([C@H](C)OC(=O)OCCOP(=O)([O-])[O-])n1ncn(-c2ccc(N3CCN(c4ccc(OC[C@@H]5CO[C@@](Cn6cncn6)(c6ccc(F)cc6F)C5)cc4)CC3)cc2)c1=O.[Na+].[Na+] [ST0059] | > 50 mg/mL
* CC[C@@H]([C@H](C)OC(=O)OC(C)OC(=O)C(O)COP(=O)([O-])[O-])n1ncn(-c2ccc(N3CCN(c4ccc(OC[C@@H]5CO[C@@](Cn6cncn6)(c6ccc(F)cc6F)C5)cc4)CC3)cc2)c1=O.[Na+].[Na+] (stereo partly shown) [ST0089] | 25.2 mg/mL
* CC[C@@H]([C@H](C)O)n1ncn(-c2ccc(N3CCN(c4ccc(OC[C@@H]5CO[C@@](Cn6c[n+](C(C)OC(=O)N(C)c7ncccc7COC(=O)[C@@H](N)[C@@H](C)O)cn6)(c6ccc(F)cc6F)C5)cc4)CC3)cc2)c1=O (stereo partly shown) [ST0026] | > 50 mg/mL
* CC[C@@H]([C@H](C)O)n1ncn(-c2ccc(N3CCN(c4ccc(OC[C@@H]5CO[C@@](Cn6c[n+](C(C)OC(=O)N(C)c7ncccc7COC(=O)[C@@H](N)CC(N)=O)cn6)(c6ccc(F)cc6F)C5)cc4)CC3)cc2)c1=O (stereo partly shown) [ST0023] | > 50 mg/mL

###

- TEST PROTOCOL: In vitro metabolic stability in human intestine S9
- Type: in vitro ADME
- ASSAY CONDITIONS: human, intestinal S9; 37° C., 10 μM compound, 1 mg/mL S9, NADPH regeneration system; read-out: Human intestine S9 T1/2
hey, just use class 1 if measured half-life at 10 µM is less than 30 min, otherwise class 0

- CC[C@@H]([C@H](C)O)n1ncn(-c2ccc(N3CCN(c4ccc(OC[C@@H]5CO[C@@](Cn6c[n+](C(C)OC(=O)N(C)c7ncccc7COC(=O)[C@@H](N)CCCCN)cn6)(c6ccc(F)cc6F)C5)cc4)CC3)cc2)c1=O (some centres unmarked): class 1
- CC[C@@H](C(C)OC(=O)OC(C)OC(=O)CCCCCCCCCOP(=O)([O-])[O-])n1ncn(-c2ccc(N3CCN(c4ccc(OC[C@@H]5CO[C@@](Cn6cncn6)(c6ccc(F)cc6F)C5)cc4)CC3)cc2)c1=O.[Na+].[Na+] (some centres unmarked): class 0
- CC[C@@H]([C@H](C)O)n1ncn(-c2ccc(N3CCN(c4ccc(OC[C@@H]5CO[C@@](Cn6c[n+](C(C)OC(=O)N(C)c7ncccc7COC(=O)[C@@H](N)CO)cn6)(c6ccc(F)cc6F)C5)cc4)CC3)cc2)c1=O (some centres unmarked): class 1
- CC[C@@H]([C@H](C)O)n1ncn(-c2ccc(N3CCN(c4ccc(OC[C@@H]5CO[C@@](Cn6c[n+](C(C)OC(=O)N(C)c7ncccc7COC(=O)[C@@H](N)[C@@H](C)O)cn6)(c6ccc(F)cc6F)C5)cc4)CC3)cc2)c1=O (some centres unmarked): class 1
- CC[C@@H]([C@H](C)O)n1ncn(-c2ccc(N3CCN(c4ccc(OC[C@@H]5CO[C@@](Cn6c[n+](C(C)OC(=O)N(C)c7ncccc7COC(=O)CN(C)C)cn6)(c6ccc(F)cc6F)C5)cc4)CC3)cc2)c1=O (some centres unmarked): class 0
- CC[C@@H]([C@H](C)O)n1ncn(-c2ccc(N3CCN(c4ccc(OC[C@@H]5CO[C@@](Cn6c[n+](C(C)OC(=O)OCC[C@@H](N)C(=O)O)cn6)(c6ccc(F)cc6F)C5)cc4)CC3)cc2)c1=O.Cl.[Cl-] (some centres unmarked): class 0
- CC[C@@H]([C@H](C)O)n1ncn(-c2ccc(N3CCN(c4ccc(OC[C@@H]5CO[C@@](Cn6c[n+](C(C)OC(=O)N(C)c7ncccc7COC(=O)CN)cn6)(c6ccc(F)cc6F)C5)cc4)CC3)cc2)c1=O (some centres unmarked): class 1
- CC[C@@H]([C@H](C)OC(=O)OC(C)OC(=O)CNC)n1ncn(-c2ccc(N3CCN(c4ccc(OC[C@@H]5CO[C@@](Cn6cncn6)(c6ccc(F)cc6F)C5)cc4)CC3)cc2)c1=O.Cl (some centres unmarked): class 0
- CC[C@@H]([C@H](C)O)n1ncn(-c2ccc(N3CCN(c4ccc(OC[C@@H]5CO[C@@](Cn6c[n+](C(C)OC(=O)N(C)c7ncccc7COC(=O)[C@@H](N)CCC(N)=O)cn6)(c6ccc(F)cc6F)C5)cc4)CC3)cc2)c1=O (some centres unmarked): class 1
- CC[C@@H]([C@H](C)O)n1ncn(-c2ccc(N3CCN(c4ccc(OC[C@@H]5CO[C@@](Cn6c[n+](C(C)OC(=O)N(C)c7ncccc7COC(=O)[C@@H](N)CC(N)=O)cn6)(c6ccc(F)cc6F)C5)cc4)CC3)cc2)c1=O (some centres unmarked): class 1
- CC[C@@H]([C@H](C)O)n1ncn(-c2ccc(N3CCN(c4ccc(OC[C@@H]5CO[C@@](Cn6c[n+](C(C)OC(=O)N(C)c7ncccc7COC(=O)[C@@H](N)Cc7ccc(O)cc7)cn6)(c6ccc(F)cc6F)C5)cc4)CC3)cc2)c1=O (some centres unmarked): class 0

###

- TEST PROTOCOL: In vitro metabolic stability in rat intestine S9
- Type: in vitro ADME
- ASSAY CONDITIONS: rat, intestinal S9, pH 7.4; 37° C., 10 μM compound, 1 mg/mL S9, NADPH regeneration system; read-out: Rat intestine S9 T1/2
Each entry below carries its recorded half-life at 10 µM.
MEASUREMENT KIND: half-life at 10 µM (min)

* CC[C@@H]([C@H](C)O)n1ncn(-c2ccc(N3CCN(c4ccc(OC[C@@H]5CO[C@@](Cn6c[n+](C(C)OC(=O)N(C)c7ncccc7COC(=O)[C@@H](N)CCC(N)=O)cn6)(c6ccc(F)cc6F)C5)cc4)CC3)cc2)c1=O (some centres unmarked) [ST0022] | 19
* CC[C@@H]([C@H](C)O)n1ncn(-c2ccc(N3CCN(c4ccc(OC[C@@H]5CO[C@@](Cn6c[n+](C(C)OC(=O)OCC[C@@H](N)C(=O)O)cn6)(c6ccc(F)cc6F)C5)cc4)CC3)cc2)c1=O.Cl.[Cl-] (some centres unmarked) [ST0018] | 45.2
* CC[C@@H]([C@H](C)O)n1ncn(-c2ccc(N3CCN(c4ccc(OC[C@@H]5CO[C@@](Cn6c[n+](C(C)OC(=O)N(C)c7ncccc7COC(=O)CN)cn6)(c6ccc(F)cc6F)C5)cc4)CC3)cc2)c1=O (some centres unmarked) [ST0002] | 18.5
* CC[C@@H]([C@H](C)O)n1ncn(-c2ccc(N3CCN(c4ccc(OC[C@@H]5CO[C@@](Cn6c[n+](C(C)OC(=O)N(C)c7ncccc7COC(=O)[C@@H](N)Cc7ccc(O)cc7)cn6)(c6ccc(F)cc6F)C5)cc4)CC3)cc2)c1=O (some centres unmarked) [ST0027] | 39.5
* CC[C@@H]([C@H](C)O)n1ncn(-c2ccc(N3CCN(c4ccc(OC[C@@H]5CO[C@@](Cn6c[n+](C(C)OC(=O)N(C)c7ncccc7COC(=O)[C@@H](N)CO)cn6)(c6ccc(F)cc6F)C5)cc4)CC3)cc2)c1=O (some centres unmarked) [ST0025] | 22.5
* CC[C@@H](C(C)OC(=O)OC(C)OC(=O)CCCCCCCCCOP(=O)([O-])[O-])n1ncn(-c2ccc(N3CCN(c4ccc(OC[C@@H]5CO[C@@](Cn6cncn6)(c6ccc(F)cc6F)C5)cc4)CC3)cc2)c1=O.[Na+].[Na+] (some centres unmarked) [ST0072] | 39.9
* CC[C@@H]([C@H](C)O)n1ncn(-c2ccc(N3CCN(c4ccc(OC[C@@H]5CO[C@@](Cn6c[n+](C(C)OC(=O)N(C)c7ncccc7COC(=O)[C@@H](N)[C@@H](C)O)cn6)(c6ccc(F)cc6F)C5)cc4)CC3)cc2)c1=O (some centres unmarked) [ST0026] | 19
* CC[C@@H]([C@H](C)O)n1ncn(-c2ccc(N3CCN(c4ccc(OC[C@@H]5CO[C@@](Cn6c[n+](C(C)OC(=O)N(C)c7ncccc7COC(=O)[C@@H](N)CC(N)=O)cn6)(c6ccc(F)cc6F)C5)cc4)CC3)cc2)c1=O (some centres unmarked) [ST0023] | 16.7
* CC[C@@H]([C@H](C)OC(=O)OC(C)OC(=O)CNC)n1ncn(-c2ccc(N3CCN(c4ccc(OC[C@@H]5CO[C@@](Cn6cncn6)(c6ccc(F)cc6F)C5)cc4)CC3)cc2)c1=O.Cl (some centres unmarked) [ST0053] | 48.2
* CC[C@@H]([C@H](C)O)n1ncn(-c2ccc(N3CCN(c4ccc(OC[C@@H]5CO[C@@](Cn6c[n+](C(C)OC(=O)N(C)c7ncccc7COC(=O)[C@@H](N)CCCCN)cn6)(c6ccc(F)cc6F)C5)cc4)CC3)cc2)c1=O (some centres unmarked) [ST0024] | 15.6
* CC[C@@H]([C@H](C)O)n1ncn(-c2ccc(N3CCN(c4ccc(OC[C@@H]5CO[C@@](Cn6c[n+](C(C)OC(=O)N(C)c7ncccc7COC(=O)CN(C)C)cn6)(c6ccc(F)cc6F)C5)cc4)CC3)cc2)c1=O (some centres unmarked) [ST0045] | 26
